experiment: Pharmacokinetic study, intravenous bolus injection in rats; assay type: in vivo; details: Sprague Dawley, plasma, rat, dose 0.1 mg/kg, 4 hour post dose, read-out: Concentration in Rat Plasma after Bolus Injection, Mean
property_label: concentration at 4 hour (ng/mL)
State just the number; it will be interpreted in ng/mL.

Exercise: GET /values?readout=concentration at 4 hour&item= CC1=C[C@H]2[C@@]3(O)[C@H](C)C[C@]4(OC(=O)[C@@H](N)CC5CCCCC5)[C@H]([C@@H]3C=C(CO)C[C@]2(O)C1=O)C4(C)C
Key: 1

---

molecular target: C1b domain of human PKCα (Homo sapiens, UniProt P17252); construct: Genes encoding C1b domains of human PKCα, δ, ε, θ, and PKD1 (PKCμ) were synthesized; made in house; host or cells: E. coli BL21(DE3); assay: biochemical; format: binding; details: 3H-PDBu competition, read-out: Ki PKCα
pKi: −log10 of the molar value.
Below, each entry is listed alongside its reported pKi.

Some compounds with recorded pKi:
Exercise: Return reported pKi; argument: CC1=C[C@H]2[C@@]3(O)[C@H](C)C[C@]4(OC(=O)[C@@H](N)C/C=C/c5ccccc5)[C@H]([C@@H]3C=C(CO)C[C@]2(O)C1=O)C4(C)C
Key: 6.70 to 7.00

Exercise: Subsequent entry: CC1=C[C@H]2[C@@]3(O)[C@H](C)C[C@]4(OC(=O)Cc5ccccc5)[C@H]([C@@H]3C=C(CO)C[C@]2(O)C1=O)C4(C)C
Key: 6.70 to 7.00

Turning to the following compound.
Exercise: Returns the measured pKi for the input compound. Input: CC1=C[C@H]2[C@@]3(O)[C@H](C)C[C@]4(OC(=O)[C@@H](N)Cc5ccccc5)[C@H]([C@@H]3C=C(CO)C[C@]2(O)C1=O)C4(C)C
Key: 6.10 to 6.40
